ASSAY SYSTEM: FLT3-ITD (Homo sapiens)
Sequence (P36888 whole entry, looked up, change not shown): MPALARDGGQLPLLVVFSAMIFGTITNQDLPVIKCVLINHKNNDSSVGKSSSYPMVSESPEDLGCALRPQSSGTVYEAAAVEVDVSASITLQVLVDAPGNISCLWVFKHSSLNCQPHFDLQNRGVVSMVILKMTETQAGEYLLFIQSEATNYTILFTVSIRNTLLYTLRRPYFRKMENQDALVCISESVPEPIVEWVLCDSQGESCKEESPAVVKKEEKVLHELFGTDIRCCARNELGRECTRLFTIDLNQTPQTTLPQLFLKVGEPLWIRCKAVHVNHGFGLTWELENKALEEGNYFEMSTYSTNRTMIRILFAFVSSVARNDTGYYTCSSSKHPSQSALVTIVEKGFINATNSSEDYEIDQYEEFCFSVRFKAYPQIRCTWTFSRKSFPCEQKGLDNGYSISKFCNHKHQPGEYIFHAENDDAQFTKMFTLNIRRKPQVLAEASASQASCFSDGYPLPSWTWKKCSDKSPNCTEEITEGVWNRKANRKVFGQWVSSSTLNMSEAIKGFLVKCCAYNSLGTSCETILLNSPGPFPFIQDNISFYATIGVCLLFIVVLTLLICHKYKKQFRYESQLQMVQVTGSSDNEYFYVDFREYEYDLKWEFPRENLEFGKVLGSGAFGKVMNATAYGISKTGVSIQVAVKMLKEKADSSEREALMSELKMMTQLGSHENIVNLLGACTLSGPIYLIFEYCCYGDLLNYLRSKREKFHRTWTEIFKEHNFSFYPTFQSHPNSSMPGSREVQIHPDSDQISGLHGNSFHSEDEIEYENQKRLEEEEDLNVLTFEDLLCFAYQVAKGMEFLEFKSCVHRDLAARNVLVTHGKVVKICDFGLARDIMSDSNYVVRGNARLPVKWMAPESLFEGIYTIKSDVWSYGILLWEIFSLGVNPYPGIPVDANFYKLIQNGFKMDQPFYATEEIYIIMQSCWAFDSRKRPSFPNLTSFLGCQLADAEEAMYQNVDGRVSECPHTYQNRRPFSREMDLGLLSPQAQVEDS
RUN DESCRIPTION: FLT3-ITD enzyme inhibition assay
MEASUREMENT CONTEXT: enzyme inhibition
MEASUREMENT KIND: IC50 (nM)
Respond with the bare value in nM.

Would you kindly share the measured IC50 for CCc1c[nH]c2ncc(-c3cccc(N4CCCN(CCN5CCN(c6cc7c(cc6F)C(=O)N(C6CCC(=O)NC6=O)C7)CC5)C4=O)c3)c(Cl)c12 (stereo not shown) [Example 7] ?
12.3

---

ASSAY SYSTEM: HPK1 (Homo sapiens (Human), UniProt Q92918)
Sequence (Q92918 whole entry): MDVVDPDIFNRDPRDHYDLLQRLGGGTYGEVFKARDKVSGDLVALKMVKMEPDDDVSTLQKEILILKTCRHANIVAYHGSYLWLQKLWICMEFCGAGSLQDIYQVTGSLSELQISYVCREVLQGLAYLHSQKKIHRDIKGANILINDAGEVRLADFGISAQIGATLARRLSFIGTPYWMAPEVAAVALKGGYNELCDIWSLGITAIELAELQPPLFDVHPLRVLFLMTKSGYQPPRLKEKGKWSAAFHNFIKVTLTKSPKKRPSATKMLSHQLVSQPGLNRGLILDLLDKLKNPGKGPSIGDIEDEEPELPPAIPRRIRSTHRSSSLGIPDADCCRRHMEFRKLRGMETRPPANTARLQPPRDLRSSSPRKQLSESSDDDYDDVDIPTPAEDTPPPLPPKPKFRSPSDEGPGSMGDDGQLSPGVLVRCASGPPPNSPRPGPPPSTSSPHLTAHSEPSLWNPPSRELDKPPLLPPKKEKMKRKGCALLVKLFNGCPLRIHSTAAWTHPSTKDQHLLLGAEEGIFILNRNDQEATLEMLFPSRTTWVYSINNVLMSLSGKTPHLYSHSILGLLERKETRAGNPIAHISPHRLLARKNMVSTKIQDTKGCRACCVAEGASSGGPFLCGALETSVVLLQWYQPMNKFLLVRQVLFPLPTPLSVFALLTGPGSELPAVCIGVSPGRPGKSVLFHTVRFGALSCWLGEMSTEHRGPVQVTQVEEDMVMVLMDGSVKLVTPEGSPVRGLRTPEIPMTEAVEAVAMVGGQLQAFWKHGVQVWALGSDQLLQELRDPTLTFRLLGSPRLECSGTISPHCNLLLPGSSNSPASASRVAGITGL
RUN DESCRIPTION: HPK1 degradation assay (western blot, human PBMC)
Format: cell-based
MEASUREMENT CONTEXT: read-out: HPK1 Dmax
So I've got a bunch of compounds here, and I need their Dmax values.
Respond with the bare value in %.

Would you kindly share the measured Dmax for CCc1c[nH]c2ncc(-c3cccc(N4CCCN(CC5CCN(c6ccc(NC7CCC(=O)NC7=O)cc6F)CC5)C4=O)c3)c(Cl)c12 (centres unmarked) [Example 15] ?
80

Would you kindly share the measured Dmax for CCc1c[nH]c2ncc(-c3cccc(N4CCCN(CC5CCN(c6ccc7c(c6)C(=O)N(C6CCC(=O)NC6=O)C7=O)CC5)C4=O)c3)c(Cl)c12 (centres unmarked) [Example 8] ?
95

Would you kindly share the measured Dmax for CCc1c[nH]c2ncc(-c3cccc(N4CCCN(CCN5CC(c6ccc7c(c6)CN(C6CCC(=O)NC6=O)C7=O)C5)C4=O)c3)c(Cl)c12 (centres unmarked) [Example 2] ?
80

Would you kindly share the measured Dmax for O=C1CCC(N2C(=O)c3cc(F)c(N4CCC(CCN5CCCN(c6cccc(-c7cnc8[nH]cc(C9CC9)c8c7Cl)c6)C5=O)CC4)cc3C2=O)C(=O)N1 (centres unmarked) [Example 9] ?
50

Would you kindly share the measured Dmax for CCc1c[nH]c2ncc(-c3cccc(N4CCCN(CCC5CCN(c6ccc(NC7CCC(=O)NC7=O)cc6F)CC5)C4=O)c3)c(Cl)c12 (centres unmarked) [Example 16] ?
64
